Cited source for all entries: patent US8937063B2

- PROCEDURE_TEXT: Single oral dose pharmacokinetic comparison niacin, ARI-001, 2230C in wild type mice
- Assay type: in vivo, C57BL/6 mice
- CONDITIONS_USED: C57BL/6; single bolus oral gavage; mouse plasma
We begin with a simple list: items and their reported Tmax.
Report only the number, with the unit min understood.

Solved entries (count: 2):
MOLECULE	ENDPOINT_UNIT	Tmax
O=C(O)c1cccnc1 [Niacin, nicotinic acid]	min	30
O=C(O)c1ccc(CCN2CCCC2)nc1 [Compound 2230C]	min	18.6

Next molecule, Tmax to be filled in.
The reported Tmax of the molecule O=C(O)c1ccc(CCN2CCOCC2)nc1 [ARI-001] was 22.8

---

- PROCEDURE_TEXT: Single-dose pharmacokinetic study PO/IP in wild type mice
- Assay type: in vivo, C57BL/6 mice
- CONDITIONS_USED: C57BL/6; IP, 448 mg/kg single bolus; mouse plasma
MEASUREMENT_TYPE: Cmax (µM)
Report only the number, with the unit µM understood.

The reported Cmax of the molecule O=C(O)c1ccc(CCN2CCOCC2)nc1 was 450

---

- PROCEDURE_TEXT: Single-dose pharmacokinetic study PO/IP in wild type mice
- Type: in vivo, C57BL/6 mice
- CONDITIONS_USED: C57BL/6; IP, 448 mg/kg single bolus; mouse plasma
MEASUREMENT_TYPE: Tmax (min)
Report only the number, with the unit min understood.

The reported Tmax of the compound O=C(O)c1ccc(CCN2CCOCC2)nc1 [ARI-001] was 15

---

- PROCEDURE_TEXT: Single oral dose pharmacokinetic comparison niacin, ARI-001, 2230C in wild type mice
- Type: in vivo, C57BL/6 mice
- CONDITIONS_USED: C57BL/6; single bolus oral gavage; mouse plasma; read-out: half-life (t1/2) (converted)
- Source text: Compound 2230C has the structure
MEASUREMENT_TYPE: half-life (h)
Report only the number, with the unit h understood.

COMPOUND	ENDPOINT_UNIT	half-life
O=C(O)c1ccc(CCN2CCOCC2)nc1	h	1.43
O=C(O)c1ccc(CCN2CCCC2)nc1 [Compound 2230C]	h	3.47

Next compound, half-life to be filled in.
The reported half-life of the compound O=C(O)c1cccnc1 was 1.75

---

- PROCEDURE_TEXT: Single oral dose pharmacokinetic comparison niacin, ARI-001, 2230C in wild type mice
- Assay type: in vivo, C57BL/6 mice
- CONDITIONS_USED: C57BL/6; single bolus oral gavage; mouse plasma
MEASUREMENT_TYPE: Cmax
Respond with the figure and its unit, in that order.

MOLECULE	VALUE_REPORTED
O=C(O)c1cccnc1	4090 µM
O=C(O)c1ccc(CCN2CCCC2)nc1 [Compound 2230C]	126 µM

Next molecule, Cmax to be filled in.
The reported Cmax of the molecule O=C(O)c1ccc(CCN2CCOCC2)nc1 was 309 µM

---

- PROCEDURE_TEXT: Human clinical trial, single oral doses: serum concentration
- Format: in vivo
- CONDITIONS_USED: serum, ARI-001 2000 mg single oral dose, preliminary, read-out: Cmax, serum
MEASUREMENT_TYPE: Cmax

The reported Cmax of the compound O=C(O)c1ccc(CCN2CCOCC2)nc1 [ARI-001] was ~7500 ng/mL

---

- PROCEDURE_TEXT: Single oral dose pharmacokinetic comparison niacin, ARI-001, 2230C in wild type mice
- Type: in vivo, C57BL/6 mice
- CONDITIONS_USED: C57BL/6; single bolus oral gavage; mouse plasma
We begin with a simple list: items and their reported AUC.
Report only the number, with the unit µM·h understood.

COMPOUND	AUC (µM·h)
O=C(O)c1cccnc1	11700
O=C(O)c1ccc(CCN2CCCC2)nc1 [Compound 2230C]	686

Next compound, AUC to be filled in.
The reported AUC of the compound O=C(O)c1ccc(CCN2CCOCC2)nc1 was 1100
